B1: SLC2A12 (parent)
chain: LTLVFFVQITGQPNILFYASTVLK

variants of: B1; assay: protein stability index of a GFP-peptide fusion (GPS, HEK-293T) (PSI 1-6); higher = more stable; conditions: c terminus: a fixed tail appended;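 also: lentivirally expressed fusions sorted by FACS into six bins by GFP to DsRed ratio, PSI derived from sequencing read proportions per bin multiplied by bin number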
quantity: protein stability index
Write the number on its own, no unit after it.

Could you tell me which protein stability index is on file for V7W ?
2.61

Field entry: F5P
3.32

Field entry: T2W
2.96

Field entry: V4Q
3.56

Field entry: G11Q
4.06

Field entry: G11F
2.92

Field entry: T10H
2.17

Field entry: F6A
2.9

Field entry: V4W
2.98

Field entry: L23V
2.58

Field entry: A19R
2.55

Field entry: F6H
3.02

Field entry: L3S
3.34

Field entry: Q12E
2.25

Field entry: Q12N
1.94

Field entry: T10S
1.67

Field entry: F6L
2.26

Field entry: Y18M
2.05

Field entry: V22C
2.2

Field entry: T2S
3.26

Field entry: T21M
3.09

Field entry: L23N
2.74
